Measured EC50, listed per entry.
Target: ligand-binding domain (LBD) of LXRα (Homo sapiens)
Construct: expressed in transfected cells; host or cells: HEK293
Sequence (Q13133 155-447): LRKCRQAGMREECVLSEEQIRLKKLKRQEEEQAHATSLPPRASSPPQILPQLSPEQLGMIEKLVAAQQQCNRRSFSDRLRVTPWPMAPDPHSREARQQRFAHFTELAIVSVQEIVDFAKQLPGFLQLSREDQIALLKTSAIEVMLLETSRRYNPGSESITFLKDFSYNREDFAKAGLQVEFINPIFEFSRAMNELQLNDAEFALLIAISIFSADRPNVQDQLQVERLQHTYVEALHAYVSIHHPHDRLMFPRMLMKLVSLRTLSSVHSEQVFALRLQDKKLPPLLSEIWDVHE
Assay: LXR Gal4 reporter transient transfection assay (LBD-M2H Gal4α)
Assay type: cell-based
Details: HEK293 cells, LXRα LBD; read-out: LBD-M2H Gal4α (EC50 range)

Smiles repr | Assay system | EC50
N#Cc1c(OCC(=O)O)cccc1-c1c(-c2cccs2)n(S(=O)(=O)c2ccc(Cl)cc2)c2ccccc12 | ligand-binding domain (LBD) of LXRα (Homo sapiens) | 1000 to 10000 nM
Cc1ccc(S(=O)(=O)n2c(-c3ccc(/C=C/C(=O)O)s3)c(-c3ccsc3C#N)c3ccccc32)cc1 | ligand-binding domain (LBD) of LXRα (Homo sapiens) | 100 to 1000 nM
N#Cc1sccc1-c1c(-c2cccc(N3CC(C(=O)O)C3)n2)n(S(=O)(=O)c2ccc(Cl)cc2)c2ccccc12 | ligand-binding domain (LBD) of LXRα (Homo sapiens) | 100 to 1000 nM
Cc1cc(C)c(S(=O)(=O)n2c(-c3cccs3)c(-c3ccsc3C#N)c3ccccc32)c(C)c1 | ligand-binding domain (LBD) of LXRα (Homo sapiens) | 100 to 1000 nM
N#Cc1sccc1-c1c(-c2cccs2)n(S(=O)(=O)c2ccc(Cl)cc2)c2cc(O)ccc12 | ligand-binding domain (LBD) of LXRα (Homo sapiens) | < 100 nM
N#Cc1sccc1-c1c(-c2cccc(N3CC(C(=O)O)C3)c2)n(S(=O)(=O)c2ccc(Cl)cc2)c2ccccc12 | ligand-binding domain (LBD) of LXRα (Homo sapiens) | < 100 nM
N#Cc1sccc1-c1c(-c2cccs2)n(S(=O)(=O)c2ccc(Cl)cc2)c2cc(OCCCC(=O)O)ccc12 | ligand-binding domain (LBD) of LXRα (Homo sapiens) | 100 to 1000 nM
N#Cc1sccc1-c1c(-c2cccs2)n(S(=O)(=O)C2CCCCC2)c2ccccc12 | ligand-binding domain (LBD) of LXRα (Homo sapiens) | 100 to 1000 nM
